target: αvβ3 integrin (Homo sapiens, UniProt P05106+P06756); assay: Inhibition of biotinylated LXW7 binding to αvβ3-K562 cells (flow cytometry); parameters: expressed in transfected cells; host or cells: K562 (gift of Dr. Yoshikazu Takada, UC Davis); details: LXW9-92: inhibiting the binding of biotinylated LXW7 against αvβ3-K562 cells; class symbols
Sequence (P06756 31-889 limits assumed): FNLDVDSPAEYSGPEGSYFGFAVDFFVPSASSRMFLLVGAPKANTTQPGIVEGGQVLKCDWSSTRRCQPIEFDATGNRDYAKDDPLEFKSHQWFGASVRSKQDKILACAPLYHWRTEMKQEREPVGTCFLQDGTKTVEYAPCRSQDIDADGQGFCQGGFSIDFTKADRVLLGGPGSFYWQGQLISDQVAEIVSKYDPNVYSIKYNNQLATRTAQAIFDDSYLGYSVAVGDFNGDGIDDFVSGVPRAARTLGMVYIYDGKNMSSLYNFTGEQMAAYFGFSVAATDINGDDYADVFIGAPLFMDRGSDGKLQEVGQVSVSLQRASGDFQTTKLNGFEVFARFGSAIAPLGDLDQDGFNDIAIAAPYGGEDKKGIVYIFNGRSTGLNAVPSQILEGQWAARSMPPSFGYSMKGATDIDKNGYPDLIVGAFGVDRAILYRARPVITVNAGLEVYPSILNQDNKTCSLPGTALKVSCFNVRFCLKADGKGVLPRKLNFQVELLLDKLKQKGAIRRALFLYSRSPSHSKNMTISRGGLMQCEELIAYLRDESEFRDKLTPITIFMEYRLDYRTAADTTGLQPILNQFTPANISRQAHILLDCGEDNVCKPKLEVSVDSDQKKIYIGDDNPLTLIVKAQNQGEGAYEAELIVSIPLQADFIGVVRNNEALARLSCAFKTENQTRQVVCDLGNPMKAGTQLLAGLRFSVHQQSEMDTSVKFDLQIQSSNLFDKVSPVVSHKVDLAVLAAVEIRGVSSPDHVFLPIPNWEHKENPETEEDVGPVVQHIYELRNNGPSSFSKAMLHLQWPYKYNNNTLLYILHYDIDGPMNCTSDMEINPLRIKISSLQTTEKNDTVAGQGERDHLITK
Sequence (P06756 891-1048 partner limits assumed): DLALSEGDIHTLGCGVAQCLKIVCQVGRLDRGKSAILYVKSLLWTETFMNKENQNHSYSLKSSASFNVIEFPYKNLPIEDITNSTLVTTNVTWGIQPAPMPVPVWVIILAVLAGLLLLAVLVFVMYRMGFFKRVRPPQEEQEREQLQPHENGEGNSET
Sequence (P05106 27-788): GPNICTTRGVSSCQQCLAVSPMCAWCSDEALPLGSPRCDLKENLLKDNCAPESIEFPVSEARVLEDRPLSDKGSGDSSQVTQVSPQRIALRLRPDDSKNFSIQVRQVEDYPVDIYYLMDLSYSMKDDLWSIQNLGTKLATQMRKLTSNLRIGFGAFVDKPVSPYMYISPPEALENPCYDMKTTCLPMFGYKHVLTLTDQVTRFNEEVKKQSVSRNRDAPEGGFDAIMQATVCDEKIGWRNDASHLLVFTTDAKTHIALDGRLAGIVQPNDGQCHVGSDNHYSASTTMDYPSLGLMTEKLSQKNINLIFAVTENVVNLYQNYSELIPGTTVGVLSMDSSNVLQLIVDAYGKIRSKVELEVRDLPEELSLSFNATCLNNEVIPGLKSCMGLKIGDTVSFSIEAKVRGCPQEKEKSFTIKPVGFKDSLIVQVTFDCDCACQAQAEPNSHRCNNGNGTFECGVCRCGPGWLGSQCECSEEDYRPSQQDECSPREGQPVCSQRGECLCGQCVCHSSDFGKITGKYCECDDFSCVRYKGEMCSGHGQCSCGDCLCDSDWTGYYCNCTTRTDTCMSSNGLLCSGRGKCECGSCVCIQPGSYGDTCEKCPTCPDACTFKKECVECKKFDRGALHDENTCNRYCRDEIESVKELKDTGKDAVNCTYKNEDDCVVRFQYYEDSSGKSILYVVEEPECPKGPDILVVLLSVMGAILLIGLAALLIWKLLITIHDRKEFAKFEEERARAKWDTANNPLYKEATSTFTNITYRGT
Bridge positions count the residues as written; N and C are the ends. Square brackets hold non-standard residues; d marks the D form. Peptide text beside a SMILES is read from it. * marks the point of attachment. Benzoyl(4-NO2) = O=C(c1ccc([N+](=O)[O-])cc1)*; Cyclohexylacetyl = O=C(CC1CCCCC1)*
Parameter Measured: IC50

- Compound: "CC(C)[C@H]1NC(=O)[C@@H](CC(=O)O)NC(=O)[C@H](CC(=O)O)NC(=O)CNC(=O)[C@H](CCCNC(=N)N)NC(=O)CNC(=O)[C@H](NC(=O)c2ccc([N+](=O)[O-])cc2)CSSC[C@H](C(N)=O)NC1=O [LXW82, 4-nitrobezoyl-cGRGDdvc] ({Benzoyl(4-NO2)}-[dC]GRGD[dD][dV][dC]-NH2; disulfide 1-8)"
  Experimental Result: "1000 to 10000 nM"
- Compound: "C=CC[C@H]1NC(=O)[C@@H](CC(=O)O)NC(=O)[C@H](CC(=O)O)NC(=O)CNC(=O)[C@H](CCCNC(=N)N)NC(=O)CNC(=O)[C@H](N)CSSC[C@H](C(N)=O)NC1=O [LWX16, cGRGDd-DAgl-c]"
  Experimental Result: "1000 to 10000 nM"
- Compound: "N=C(N)NCCC[C@@H]1NC(=O)CNC(=O)[C@H](N)CSSC[C@H](C(N)=O)NC(=O)[C@@H](Cc2ccsc2)NC(=O)[C@@H](CC(=O)O)NC(=O)[C@H](CC(=O)O)NC(=O)CNC1=O [LXW66, cGRGDd-D3Thi-c]"
  Experimental Result: "< 1000 nM"
- Compound: "N=C(N)NCCC[C@@H]1NC(=O)CNC(=O)[C@H](N)CSSC[C@H](C(N)=O)NC(=O)[C@@H](Cc2c[nH]c3ccccc23)NC(=O)[C@@H](CC(=O)O)NC(=O)[C@H](CC(=O)O)NC(=O)CNC1=O [LXW68, cGRGDdwc] (H-[dC]GRGD[dD][dW][dC]-NH2; disulfide 1-8)"
  Experimental Result: "< 1000 nM"
- Compound: "CC(C)[C@H]1NC(=O)[C@@H](CC(=O)O)NC(=O)[C@H](CC(=O)O)NC(=O)CNC(=O)[C@H](CCCNC(=N)N)NC(=O)CNC(=O)[C@@H](N)CSSC[C@H](C(N)=O)NC1=O [LXW9, CGRGDdvc] (H-CGRGD[dD][dV][dC]-NH2; disulfide 1-8)"
  Experimental Result: "1000 to 10000 nM"
- Compound: "CC(C)[C@H]1NC(=O)[C@@H](CC(=O)O)NC(=O)[C@H](CC(=O)O)NC(=O)CNC(=O)[C@H](CCCNC(=N)N)NC(=O)CNC(=O)[C@H](NC(=O)CC2CCCCC2)CSSC[C@H](C(N)=O)NC1=O [LXW78, cyclohexyl acetyl-cGRGDdvc] (Cyclohexylacetyl-[dC]GRGD[dD][dV][dC]-NH2; disulfide 1-8)"
  Experimental Result: "1000 to 10000 nM"
- Compound: "CC(=O)N[C@@H]1CSSC[C@H](C(N)=O)NC(=O)[C@@H](C(C)C)NC(=O)[C@@H](CC(=O)O)NC(=O)[C@H](CC(=O)O)NC(=O)CNC(=O)[C@H](CCCNC(=N)N)NC(=O)CNC1=O [LXW12, Acetyl-cGRGDdvc] (Ac-[dC]GRGD[dD][dV][dC]-NH2; disulfide 1-8)"
  Experimental Result: "< 1000 nM"
